- Target or system: T1, huCTLA4 (antigen of the Octet experiments) (human, UniProt P16410 37-162, limits assumed)
- T1 construct: Construct of the soluble antigen not described; also called the antigen
- T1 sequence (P16410 37-162 limits assumed): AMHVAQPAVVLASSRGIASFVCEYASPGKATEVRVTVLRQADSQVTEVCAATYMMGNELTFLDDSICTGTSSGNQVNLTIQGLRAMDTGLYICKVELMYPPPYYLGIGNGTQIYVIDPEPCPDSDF
- Assay info: BLI (Octet Red96), antibody on anti-hIgG Fc biosensor, huCTLA4 in solution, 1:1 fit
Property: Kd (nM)
Note: unit nM is implicit; provide only the numeric part.

Query: Please report the recorded Kd for Humanized HC2 + LC2 (PP4634) (antibody, IgG1, V domains shown, Humanized L3D10; also called H3107 + L3107) VH: QVQLQESGPGLVKPSETLSLTCTVSGFSLTSYGLSWIRQPPGKGLEWIGYIWYDGNTNFHSSLKSRVTISKDTSKSQVSLKLSSVTAADTAVYYCAKTEGHYYGSNYGYYALDYWGQGTLVTVSS VL: DIQMTQSPSSLSASVGDRVTITCRASENIYSNLAWYQQKQGKAPKLLLYAATNLQDGVPSRFSGSGSGTDYTLTISSLQPEDFATYFCQHLWGTPYTFGQGTKLEIK .
Result: 6.8
